- study target: 5HT2A receptor (Homo sapiens, UniProt P28223)
- Sequence (P28223 whole entry): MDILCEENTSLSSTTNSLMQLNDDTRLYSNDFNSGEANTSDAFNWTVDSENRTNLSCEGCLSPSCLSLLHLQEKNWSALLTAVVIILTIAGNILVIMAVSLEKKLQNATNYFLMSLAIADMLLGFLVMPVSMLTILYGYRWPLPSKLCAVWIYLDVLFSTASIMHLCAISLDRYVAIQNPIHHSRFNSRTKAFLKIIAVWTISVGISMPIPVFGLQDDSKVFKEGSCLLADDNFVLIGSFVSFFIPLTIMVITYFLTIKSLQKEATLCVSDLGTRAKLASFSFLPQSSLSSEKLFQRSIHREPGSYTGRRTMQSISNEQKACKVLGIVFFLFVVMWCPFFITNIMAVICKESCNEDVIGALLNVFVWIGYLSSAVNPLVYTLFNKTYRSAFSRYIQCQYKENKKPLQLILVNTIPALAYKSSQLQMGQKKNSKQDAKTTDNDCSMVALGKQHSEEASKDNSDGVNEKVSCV
- assay overview: cell-based
- Set-up: expressed in transfected cells; host or cells: HEK293T cells, transient co-transfection
- protocol conditions: HEK-293T, BRET2 Gαq dissociation, HEK293T cells, normalized to 5-HT; read-out: 5HT2A Gq Emax (%)
readout kind: Emax (%)
Just the number in %, nothing appended.

Illustrative cases are given below, each with its answer.
{"compound": "CN1CCC=C(c2c[nH]c3ncc(-c4ccccc4)cc23)C1 [Example 8]", "uom": "%", "Emax": 95.5}
{"compound": "CN1CCC=C(c2n[nH]c3c(C#N)cccc23)C1 [Example 108]", "uom": "%", "Emax": 102}

Next up:
(Q) What reported Emax corresponds to C#CCN1CCC=C(c2n[nH]c3c(Cl)cccc23)C1 [Example 125] on 5HT2A receptor (Homo sapiens, UniProt P28223)?
(A) 93.5

// data source = patent US20260265246A1
